Please go through the items and note down their protein stability index.
# TEST DETAILS: protein stability index of a GFP-peptide fusion (GPS, HEK-293T) (PSI 1-6); higher = more stable;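 note: 24-mer peptide tiles fused after GFP, lentivirally expressed, FACS-sorted into six equal bins by GFP/DsRed ratio, decoded by Illumina sequencing, PSI is the read-weighted mean bin number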
# CONDITION CONTEXT: treatment: DMSO; c terminus: a fixed tail appended
Give the figure only, with no unit attached.

In one line, give reported protein stability index of the entry GCILQWKKIYCRICMAQIAYSGNT [ZBED1] .
2.23

Give protein stability index for RVYLATDDPSLLKEAKTKYPNYEF [FUT8]
2.95

Please give measured protein stability index of the following entry: DLSKIIRTSSGTSREKTACAINKV [FAM98B]
3.06

Provide protein stability index value for the following sequence: AALCALGKDCFLELAPDFVGDILW [ETS1]
2.51

Specify protein stability index for IMDTVGNIWVCYASYVVFRIIYML [SLC19A2] and stop.
2.83

Fill in reported protein stability index for this entry: LYGQRNSAPEQELLVQDATPVSNS [GFOD1]
4.82

Give a short answer stating reported protein stability index for EAQEEFLRVLGSMCQRLRSMQYNG [DFFB] .
2.27

Please give the documented protein stability index of PAEESKPAPSPHEEPCSPGLLQDQ [CBY2]
5.33

Let me know recorded protein stability index for VERALQLPREPGDSAQFTKALAII [FEM1A] , thanks.
3.1

State its protein stability index for this sequence: KEDALLYQSKGYNDDYYEESYFTT [EMD]
4.2

Tell us which protein stability index value is on record for EGYWLPGDEISIKKKNTNKQEMGT [ZMYND11]
4.7

Please report the measured protein stability index for RPAQAIGTQPRATKHKCRQLTKAS [SPACA9]
4.47

Specify reported protein stability index for the sequence shown: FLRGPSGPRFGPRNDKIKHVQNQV [VAMP4]
2.93

###

# TEST DETAILS: protein stability index of a GFP-peptide fusion (GPS, HEK-293T) (PSI 1-6); higher = more stable
# CONDITION CONTEXT: treatment: DMSO; c terminus: a fixed tail appended
QUANTITY NAME: protein stability index
Respond numerically, and do not add a unit to the figure.

Return the recorded protein stability index value; entry: LSQRVMCNDLFKVNPFQLQQFRAD [TIAF1]
2.48

# return recorded protein stability index for entry MAATCEISNIFSNYFSAMYSSEDS [ELF3]
2.29

Please list protein stability index recorded for the sequence NWQPAVPLMHMLHLSGALDFPRQS [SPATS1]
2.07

Quickly give me recorded protein stability index for LATLEGDDPSLRKTHSSPALSQGH [PSD2]
4.44

// fetch protein stability index given entry IQEQKVVLEENGEKNQVQLGKLEA [SASS6]
5.2

Tell us which protein stability index value is on record for MGPKTLPQLAGKWQVLCMLSLCCW [PCDHGC5]
3.21

For RNARIVHLVEETRIHVLPSLNPDG [CPXM2] , write its protein stability index.
2.97

Please report the measured protein stability index for AVVSQMDQEQGSSFQMSEGSEAAV [FAM189A2]
5.46

Please supply the value of reported protein stability index for the item KQTGIVFGSFLLLLFSLTQFSVVS [RTN1]
3.08

Hello, please tell me recorded protein stability index for this one: RPQPRGLLGWGYYLIMLPFRFTYY [FAF2]
3.86

Assign protein stability index to the following record: TENSALQLQVTEREEVRGRELTGL [LMNB1]
5.14

Tell me measured protein stability index for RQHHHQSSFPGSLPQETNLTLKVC please.
2.89

# return recorded protein stability index for input GGAEMRTQHWPIRLDGQQEPQPFV [MYORG]
3.86
